FYI, the data here is from ChEMBL document CHEMBL1961873.

assay-system: Homeodomain-interacting protein kinase 1 (Homo sapiens) (UniProt Q86Z02);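 further: values are mean percent inhibition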
Sequence (Q86Z02 whole entry, looked up): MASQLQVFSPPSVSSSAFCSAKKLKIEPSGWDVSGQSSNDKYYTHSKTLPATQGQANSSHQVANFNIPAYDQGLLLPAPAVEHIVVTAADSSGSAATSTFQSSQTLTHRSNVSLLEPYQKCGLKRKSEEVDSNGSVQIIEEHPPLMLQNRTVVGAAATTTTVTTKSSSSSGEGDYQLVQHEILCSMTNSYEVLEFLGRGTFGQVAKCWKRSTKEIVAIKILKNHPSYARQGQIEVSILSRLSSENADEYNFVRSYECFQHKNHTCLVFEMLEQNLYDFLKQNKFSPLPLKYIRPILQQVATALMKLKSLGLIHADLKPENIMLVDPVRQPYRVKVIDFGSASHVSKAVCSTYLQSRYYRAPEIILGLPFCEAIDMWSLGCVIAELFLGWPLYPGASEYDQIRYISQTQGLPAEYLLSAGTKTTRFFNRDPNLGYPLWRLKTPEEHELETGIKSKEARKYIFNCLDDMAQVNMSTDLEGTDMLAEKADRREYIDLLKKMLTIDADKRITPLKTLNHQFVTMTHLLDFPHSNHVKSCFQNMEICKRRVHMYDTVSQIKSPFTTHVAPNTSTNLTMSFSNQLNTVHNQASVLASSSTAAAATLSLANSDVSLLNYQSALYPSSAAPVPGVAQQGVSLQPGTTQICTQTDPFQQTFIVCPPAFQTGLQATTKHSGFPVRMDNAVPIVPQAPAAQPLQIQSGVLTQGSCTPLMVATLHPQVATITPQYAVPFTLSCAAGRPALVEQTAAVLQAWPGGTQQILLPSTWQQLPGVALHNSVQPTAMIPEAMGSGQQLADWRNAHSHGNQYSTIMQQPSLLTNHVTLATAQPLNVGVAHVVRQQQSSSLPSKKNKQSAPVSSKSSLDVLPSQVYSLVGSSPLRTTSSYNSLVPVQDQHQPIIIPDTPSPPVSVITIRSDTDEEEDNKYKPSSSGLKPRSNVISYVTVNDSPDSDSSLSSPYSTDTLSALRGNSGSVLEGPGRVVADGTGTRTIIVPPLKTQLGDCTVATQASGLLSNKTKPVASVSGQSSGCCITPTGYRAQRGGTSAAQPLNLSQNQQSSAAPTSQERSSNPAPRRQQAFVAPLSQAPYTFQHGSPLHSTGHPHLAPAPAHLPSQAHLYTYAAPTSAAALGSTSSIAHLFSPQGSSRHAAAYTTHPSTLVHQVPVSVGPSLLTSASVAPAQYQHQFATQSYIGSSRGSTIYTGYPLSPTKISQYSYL
settings: at 1 µM
attribute-measured: inhibition (%)

COC(=O)Nc1nc2ccc(Sc3ccc(NC(=O)Nc4cc(C(F)(F)F)ccc4F)cc3)cc2[nH]1 :: 3.89
C[C@@H](Oc1cc(-n2cnc3ccc(OCC4CCN(C)CC4)cc32)sc1C(N)=O)c1ccccc1Cl :: 8.77
NCc1ccc(-n2c(-c3nonc3N)nc3cnccc32)cc1 :: 9.18
CCN(CC)Cc1ccc(Nc2nccc(-c3cnn4ncccc34)n2)cc1 :: 71.9
C[C@@H](Oc1cc(-n2cnc3ccc(OC4CCN(C)CC4)cc32)sc1C(N)=O)c1ccccc1Cl :: 2.08
COc1ccc2cc(-c3c(-c4ccncc4)nc(-c4ccc(S(C)(=O)=O)cc4C)n3C)ccc2c1 :: -0.46
Cc1nnc(-c2ccc(C)c(-c3ccc(C(=O)NCc4ccc(Cl)cc4)cc3)c2)o1 :: -3.98
COc1ccc(C2=C(N3CCc4ccccc43)C(=O)NC2=O)cc1 :: 8.68
Cc1ccc(NC(=O)c2ccoc2)cc1-c1ccc(C(=O)NCC2CC2)cc1 :: 0.37
CCS(=O)(=O)c1ccc(OC)c(Nc2ncc(-c3ccccc3Cl)o2)c1 :: 9.06
CCS(=O)(=O)c1ccc(OC)c(Nc2ncc(-c3cccc(-c4ccccc4F)c3)o2)c1 :: 6.56
O=C(Nc1n[nH]c2cc(-c3cc(F)ccc3F)ccc12)C1CC1 :: 1.85
Cc1ccc(C(=O)NC(C)C)cc1-c1ccc(C(=O)NCC2CC2)cc1 :: 1.88
Fc1ccc(-c2ncn(C3CCNCC3)c2-c2ccnc(Oc3ccc4c(c3)OCO4)n2)cc1 :: 5.62
COc1cc2ncn(-c3cc(OCc4ccccc4C(F)(F)F)c(C(C)=O)s3)c2cc1OC :: 4.77
COc1cc(Nc2ncc(-c3ccccc3)o2)cc(OC)c1OC :: 11.2
CN(c1ccc(NC(=O)Nc2c(Cl)cccc2Cl)cc1)c1ccnc(Nc2cccc(CS(C)(=O)=O)c2)n1 :: 5.39
CS(=O)(=O)CCNCc1ccc(-c2ccc3ncnc(Nc4ccc(OCc5ccccc5)c(Br)c4)c3c2)o1 :: -4.53
COc1cccc(/C=N/Nc2ncnc3c2cnn3-c2cccc(OC)c2)c1 :: 2.63
Fc1ccc(-c2c(-c3ccncc3)nc3n2CCS3)cc1 :: 4.73
CNC(=O)c1cncc(/C=C/c2c(C)cccc2C)c1 :: 2.67
COc1cc(Nc2ncc3c(C)nc(-c4cccc(C(F)(F)F)c4)n3n2)cc(OC)c1OC :: 26.8
NS(=O)(=O)c1ccc(N/N=C2\C(=O)Nc3ccc(C(=O)NCCCn4ccnc4)cc32)cc1 :: 34.3
O=C(NCC1CC1)c1ccc(-c2cccc(C(=O)NC3CC3)c2)cc1 :: 5.27
N#Cc1ccc(Oc2nccc(-c3c(-c4ccc(F)cc4)ncn3C3CCNCC3)n2)cc1 :: -6.22
Fc1ccc(-c2ncn(CCCN3CCOCC3)c2-c2ccncc2)cc1 :: -1.47
Fc1ccc(-c2nc3n(c2-c2ccncc2)CCS3)cc1 :: -3.92
COc1cc(C)c(N(C)C(=O)CN(C)C)cc1Nc1nc(Nc2cccc(F)c2C(N)=O)c2cc[nH]c2n1 :: 2.02
C/C(Nc1ccc(S(N)(=O)=O)cc1)=C1/C(=O)Nc2ccccc21 :: -1.35
NC(=O)c1ccc(Oc2nccc(-c3c(-c4ccc(F)cc4)ncn3C3CCNCC3)n2)cc1 :: 2.53
CCC(=O)Nc1ccc(C)c(-c2ccc(C(=O)NCC3CC3)cc2)c1 :: -2.43
O=C1Nc2ccccc2/C1=C/Nc1ccc(-n2cncn2)cc1 :: 5.5
O=C(Nc1n[nH]c2nc(-c3ccc(O)cc3)c(Br)cc12)C1CC1 :: 58
Fc1ccc(-c2ncn(C3CCNCC3)c2-c2ccnc(Oc3ccc(Oc4ccccc4)cc3)n2)cc1 :: 2.08
O=C1NC(=O)C(c2cccc(Cl)c2)=C1Nc1ccc(Cl)c(C(=O)O)c1 :: 1.77
CCc1nccc2c1nc(-c1nonc1N)n2CC :: 6.91
COc1cccc(-n2cnc3c(N/N=C/c4ccncc4)ncnc32)c1 :: -0.32
O=C(Nc1n[nH]c2cc(-c3ccccc3)ccc12)C1CC1 :: 0.72
COc1cc(Nc2ncc3c(C)nc(-c4cccc(Oc5ccccc5)c4)n3n2)cc(OC)c1OC :: 10.8
COc1ccc(-c2ccc3c(NC(=O)C4CC4)n[nH]c3n2)cc1 :: 2.49
